Biological target: T1, human high affinity trimeric IL-2 receptor (CD25/CD122/CD132) (human, UniProt P01589 22-272; P14784 27-551; P31785 23-369)
T1 sequence 1: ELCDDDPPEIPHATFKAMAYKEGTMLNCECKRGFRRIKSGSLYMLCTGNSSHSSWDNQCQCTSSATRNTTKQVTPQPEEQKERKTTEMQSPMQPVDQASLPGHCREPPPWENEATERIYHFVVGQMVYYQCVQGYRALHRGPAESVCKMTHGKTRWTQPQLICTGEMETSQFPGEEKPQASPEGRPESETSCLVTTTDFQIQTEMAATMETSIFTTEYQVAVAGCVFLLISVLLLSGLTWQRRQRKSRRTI
T1 sequence 2: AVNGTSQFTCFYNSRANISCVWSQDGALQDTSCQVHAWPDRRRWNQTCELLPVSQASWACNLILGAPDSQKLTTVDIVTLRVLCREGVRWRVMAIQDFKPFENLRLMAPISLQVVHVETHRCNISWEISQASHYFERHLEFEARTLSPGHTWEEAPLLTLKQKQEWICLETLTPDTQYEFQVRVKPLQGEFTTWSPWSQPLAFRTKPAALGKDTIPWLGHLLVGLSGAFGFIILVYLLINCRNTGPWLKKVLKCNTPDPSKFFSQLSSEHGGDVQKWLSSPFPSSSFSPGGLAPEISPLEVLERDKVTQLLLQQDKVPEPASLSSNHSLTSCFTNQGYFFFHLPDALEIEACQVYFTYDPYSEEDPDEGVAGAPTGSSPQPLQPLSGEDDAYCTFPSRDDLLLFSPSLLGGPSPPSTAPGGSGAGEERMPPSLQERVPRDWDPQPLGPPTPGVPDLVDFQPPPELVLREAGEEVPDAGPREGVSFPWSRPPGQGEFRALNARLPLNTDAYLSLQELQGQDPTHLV
T1 sequence 3: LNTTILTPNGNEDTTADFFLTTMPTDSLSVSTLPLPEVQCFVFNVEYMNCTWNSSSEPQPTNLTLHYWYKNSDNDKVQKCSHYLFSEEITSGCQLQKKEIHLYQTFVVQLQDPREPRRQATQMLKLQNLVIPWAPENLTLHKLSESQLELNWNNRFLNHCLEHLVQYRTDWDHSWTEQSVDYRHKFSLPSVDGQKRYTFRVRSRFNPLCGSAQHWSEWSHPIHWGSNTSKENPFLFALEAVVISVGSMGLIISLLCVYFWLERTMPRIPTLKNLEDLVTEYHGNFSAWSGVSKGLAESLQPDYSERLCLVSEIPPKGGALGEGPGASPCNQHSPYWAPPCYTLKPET
Test: cell-based or functional assay
So basically: pSTAT5 ratio YT CD25/YT, dilution factor 64, lower table at 8 or higher? That is 1.0. Lower than 8? That is 0.0.

Query block: Is the recorded value of pSTAT5 ratio YT CD25/YT, dilution factor 64, lower table equal to or greater than 8 for this binder? RRH (ligand) cytokine: APTSSSTKKTQLQLEHLRLDLRMILNGINNYKNPKLTRMLTFKFYMPKKATELKHLQCLEEELKPLEEVLNLAQSKNFHLRPRDLISNINVIVLELKGSETTFMCEYADETATIVEFLNRWITFCHSIISTLT
Result block: 1.0

Query block: Is the recorded value of pSTAT5 ratio YT CD25/YT, dilution factor 64, lower table equal to or greater than 8 for this binder? RVH (ligand) cytokine: APTSSSTKKTQLQLEHLRLDLVMILNGINNYKNPKLTRMLTFKFYMPKKATELKHLQCLEEELKPLEEVLNLAQSKNFHLRPRDLISNINVIVLELKGSETTFMCEYADETATIVEFLNRWITFCHSIISTLT
Result block: 0.0

Query block: Is the recorded value of pSTAT5 ratio YT CD25/YT, dilution factor 64, lower table equal to or greater than 8 for this binder? RLH (ligand) cytokine: APTSSSTKKTQLQLEHLRLDLLMILNGINNYKNPKLTRMLTFKFYMPKKATELKHLQCLEEELKPLEEVLNLAQSKNFHLRPRDLISNINVIVLELKGSETTFMCEYADETATIVEFLNRWITFCHSIISTLT
Result block: 0.0

Query block: Is the recorded value of pSTAT5 ratio YT CD25/YT, dilution factor 64, lower table equal to or greater than 8 for this binder? RAH (ligand) cytokine: APTSSSTKKTQLQLEHLRLDLAMILNGINNYKNPKLTRMLTFKFYMPKKATELKHLQCLEEELKPLEEVLNLAQSKNFHLRPRDLISNINVIVLELKGSETTFMCEYADETATIVEFLNRWITFCHSIISTLT
Result block: 0.0

Query block: Is the recorded value of pSTAT5 ratio YT CD25/YT, dilution factor 64, lower table equal to or greater than 8 for this binder? HEH (ligand) cytokine: APTSSSTKKTQLQLEHLHLDLEMILNGINNYKNPKLTRMLTFKFYMPKKATELKHLQCLEEELKPLEEVLNLAQSKNFHLRPRDLISNINVIVLELKGSETTFMCEYADETATIVEFLNRWITFCHSIISTLT
Result block: 1.0
